Reference source for all entries: patent US20250152729A1

- Assayed System: T1, human SEMA4A expressed on cells (UniProt ID Q9H3S1, isoform 1) (human, UniProt Q9H3S1 33-761)
- T1 sequence: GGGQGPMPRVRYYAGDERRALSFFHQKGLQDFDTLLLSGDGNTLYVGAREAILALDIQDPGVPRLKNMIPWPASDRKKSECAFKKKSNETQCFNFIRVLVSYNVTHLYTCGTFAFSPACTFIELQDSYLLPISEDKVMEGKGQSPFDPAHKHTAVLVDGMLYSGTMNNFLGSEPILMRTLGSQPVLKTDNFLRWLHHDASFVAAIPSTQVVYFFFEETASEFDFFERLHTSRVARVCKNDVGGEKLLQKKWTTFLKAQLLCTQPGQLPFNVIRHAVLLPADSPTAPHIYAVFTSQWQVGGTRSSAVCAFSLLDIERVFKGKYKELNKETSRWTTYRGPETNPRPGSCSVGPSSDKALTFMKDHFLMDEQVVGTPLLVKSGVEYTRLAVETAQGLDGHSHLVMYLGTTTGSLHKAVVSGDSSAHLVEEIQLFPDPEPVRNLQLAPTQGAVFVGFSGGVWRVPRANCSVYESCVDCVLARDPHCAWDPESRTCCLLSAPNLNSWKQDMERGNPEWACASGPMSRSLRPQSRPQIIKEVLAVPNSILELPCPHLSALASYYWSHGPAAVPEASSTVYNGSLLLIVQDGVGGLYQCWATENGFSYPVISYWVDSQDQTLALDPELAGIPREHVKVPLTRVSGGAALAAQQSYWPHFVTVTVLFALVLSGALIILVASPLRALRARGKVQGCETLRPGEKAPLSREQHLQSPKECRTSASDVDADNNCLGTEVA
- Measurement Notes: cell-based or functional assay
Measurement Kind: Average MM1.S IC50 [pM], cell kill (pM)

INSERT INTO measurements (binder, unit_spec, value_observed) VALUES
  ('C0120903 human Alya IgG1 conjugated to McMMAF (antibody, V domains shown, McMMAF on the engineered cysteines 239iCys and S442C (EU numbering) of the heavy constant region, Antibody-drug conjugate; human IgG1 Alya constant; also called C0120903-McMMAF) VH: EVQLVQSGAEVKKPGSSMKVSCKASGGTFNSYTINWVRQAPGQGLEWVGGFIPIFGTADYAQKFHGRVAITADESMSTAYMELSSLRSEDTAVYYCARAPLGSEPFDYWGQGTMVTVSS VL: SYVLTQPPSVSVAPGQTARITCGGNNIGSKSVHWYQQKPGQAPVLVVYDDSDRPSGIPERFSGSNSGNTATLTISRVEAGDEADYYCQVWDSSSDHLVFGGGTKLTVL', 'pM', 8.8),
  ('C0120910 human Alya IgG1 conjugated to McMMAF (antibody, V domains shown, McMMAF on the engineered cysteines 239iCys and S442C (EU numbering) of the heavy constant region, Antibody-drug conjugate; human IgG1 Alya constant) VH: QVQLVESGGGVVQPGRSLRLSCEASEFTFSNYAMHWVRQAPDKGLEWVAGILYDGATAHYADSVKGRFTISRDNSKNTLYLQINSLRAEDTAVYYCARAHYYDYWSGLSFEYWGRGTLVTVSS VL: QSVLTQPPSASVSPGQTASIPCSGDDLGDKYIYWYQQKPGQSPVLVIYQDSRRPPGIPERFSGSNSGNTATLTISGTQPMDEADYYCQTWDTSSASAVFGGGTKVTVL', 'pM', 7490),
  ('C0120906 human Alya IgG1 conjugated to McMMAF (antibody, V domains shown, McMMAF on the engineered cysteines 239iCys and S442C (EU numbering) of the heavy constant region, Antibody-drug conjugate; human IgG1 Alya constant; also called C0120906-McMMAF) VH: EVQLVQSGPEVKKPGASVKISCKASGYKLNDPGVHGVSWVRQAPGQGLEWMGWISTLNGDTRYAQKFQGRVTMATDSSTSTIYMDLRSLKSDDTALYYCARDDYTAIFDFWGRGTLVTVSS VL: QSVLTQPPSVSVAPGQTASITCGGSNIGSQSVHWYQQKPGQAPVLVVYDDSDRPSGIPERFSGSKSGNTASLILSRVEAGDEADYYCQVWDSSTDHHVFGTGTKVTVL', 'pM', 4.7);
